Reference source for all entries: patent US6683029B1

Measurement Description: logP by HPLC (EEC Directive 79/831 Annex V. A8)
Outcome Measure: chromatographic logP
// return a plain number; no unit text

# chromatographic logP lookup, item CON=C(C(=O)OC)c1ccccc1Oc1ncnc(Oc2cccc(F)c2)c1F [Example 1]
3.46
